study_target: T1, human IGF2^1-67 (mature insulin-like growth factor 2) (human, UniProt P01344 25-91, biotinylated (site not stated) where immobilised on the chip (Tables 1-4))
T1 construct: mature; also called mature IGF2; biotinylated IGF2
T1 sequence (P01344 25-91): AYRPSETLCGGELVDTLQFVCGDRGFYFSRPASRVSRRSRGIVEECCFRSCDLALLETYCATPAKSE
method_summary: SPR kinetic, biotin-IGF2 on chip, pH 7.4
assay_endpoint: kon (M⁻¹ s⁻¹)

Please review the following examples before continuing.
binder: domain 11^AB5 G1603A (receptor, See m5) MKSNEHDDCQVTNPSTGHLFDLSSLSGRAGFTAAYAKGWGVYMSICGENENCPPGVGACFGQTRISVGKANKRLRYVDQVLQLVYKDGSPCPSKSALSYKSVISFVCRPEAGPTNRPMLISLDKQTCTLFFSWHTPLACEQATECSV
units_text: M⁻¹ s⁻¹
kon: 2.14e+06
--
binder: IGF2R domain 11^AB5 (receptor, His6-tagged soluble domain 11; also called 1542YAKGWG1547) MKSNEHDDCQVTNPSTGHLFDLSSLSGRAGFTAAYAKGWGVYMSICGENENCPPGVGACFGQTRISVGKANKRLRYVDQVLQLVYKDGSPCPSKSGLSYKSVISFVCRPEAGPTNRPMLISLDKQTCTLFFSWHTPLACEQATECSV
units_text: M⁻¹ s⁻¹
kon: 4.21e+06
--
binder: domain 11^AB5 S1600A (receptor, See m5) MKSNEHDDCQVTNPSTGHLFDLSSLSGRAGFTAAYAKGWGVYMSICGENENCPPGVGACFGQTRISVGKANKRLRYVDQVLQLVYKDGSPCPAKSGLSYKSVISFVCRPEAGPTNRPMLISLDKQTCTLFFSWHTPLACEQATECSV
units_text: M⁻¹ s⁻¹
kon: 2.39e+06

[a] domain 11^AB5 S1602N (receptor, See m5) MKSNEHDDCQVTNPSTGHLFDLSSLSGRAGFTAAYAKGWGVYMSICGENENCPPGVGACFGQTRISVGKANKRLRYVDQVLQLVYKDGSPCPSKNGLSYKSVISFVCRPEAGPTNRPMLISLDKQTCTLFFSWHTPLACEQATECSV
[b] domain 11^AB5 S1600N (receptor, See m5) MKSNEHDDCQVTNPSTGHLFDLSSLSGRAGFTAAYAKGWGVYMSICGENENCPPGVGACFGQTRISVGKANKRLRYVDQVLQLVYKDGSPCPNKSGLSYKSVISFVCRPEAGPTNRPMLISLDKQTCTLFFSWHTPLACEQATECSV
[in] # returns the entry with the larger kon; inputs a and b Return value: the label identifying the chosen record.
[out] b
